Tested on: YT (IL-2 2.5 ng/mL)
Assay: percent inhibition of viability; higher = more inhibition;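 further: normalised to DMSO-only wells as negative and benzethonium chloride as positive control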
Conditions: 72 h; 10000 nM
Consider the following compounds and their measured percent inhibition of viability readings.
The reply should contain only the number, in %.

# example entries with known answers
CC1(C)CCC(c2ccc(Cl)cc2)=C(CN2CCN(c3ccc(C(=O)NS(=O)(=O)c4ccc(N[C@H](CCN5CCOCC5)CSc5ccccc5)c(S(=O)(=O)C(F)(F)F)c4)cc3)CC2)C1 [Navitoclax] (max concentration tested 10000 nM)	87.6
CNC(=O)c1ccc2cc([C@@]3(O)CCn4cncc43)ccc2c1 [Orteronel] (max concentration tested 10000 nM)	-4.8
CC(C)[C@H](C(=O)Nc1ccc(C(=O)NO)cc1)c1ccccc1 [AR-42] (max concentration tested 10000 nM)	108
CC[C@H](CC#N)OC(=O)N[C@@H](C)c1cccc(NC(=O)Nc2ccc(-c3cnco3)c(OC)c2)c1 [AVN944] (max concentration tested 10000 nM)	83.1
C=C(c1ccc(C(=O)O)cc1)c1cc2c(cc1C)C(C)(C)CCC2(C)C [Bexarotene] (max concentration tested 10000 nM)	38.4

Enquiry: # return recorded percent inhibition of viability for entry Nc1ccccc1NC(=O)c1ccc(CNc2nccc(-c3cccnc3)n2)cc1 [Mocetinostat] (max concentration tested 10000 nM)
Return: 104

Enquiry: Read the entry CCCc1cc(C)[nH]c(=O)c1CNC(=O)c1cc(-c2ccnc(N3CCN(C)CC3)c2)cc2c1cnn2C(C)C [GSK343] (max concentration tested 10000 nM) and write its reported percent inhibition of viability.
Return: 99

Enquiry: Please indicate percent inhibition of viability recorded for CC/C(=C(\c1ccc(O)cc1)c1ccc(OCCN(C)C)cc1)c1ccccc1 [4-hydroxytamoxifen] (max concentration tested 10000 nM)
Return: 93.1

Enquiry: Give recorded percent inhibition of viability. CO[C@@H](C(=O)N1Cc2[nH]nc(NC(=O)c3ccc(N4CCN(C)CC4)cc3)c2C1)c1ccccc1 [Danusertib] (max concentration tested 10000 nM)
Return: 44.9

Enquiry: Return value of percent inhibition of viability for input CC1(C)NC(=O)N(c2ccc([N+](=O)[O-])c(C(F)(F)F)c2)C1=O [Nilutamide] (max concentration tested 10000 nM) , no commentary.
Return: 25

Enquiry: For the compound O=C(CCCCCCC(=O)Nc1ccc([C@H]2O[C@@H](CSc3nc(-c4ccccc4)c(-c4ccccc4)o3)C[C@@H](c3ccc(CO)cc3)O2)cc1)NO [Tubacin] (max concentration tested 10000 nM) , report percent inhibition of viability.
Return: 88.3

Enquiry: For the compound O=C(CCCCCCC(=O)Nc1ccccc1)NO [Vorinostat] (max concentration tested 10000 nM) , give its reported percent inhibition of viability.
Return: 106

Data provenance: the supplement of paper PMC5908809
